System: S. cerevisiae AD1-9 (efflux-pump deficient), vegetative growth in YPD
measurement-protocol: growth sensitivity score (doubling time z-score vs DMSO controls); higher = slower growth, strongly negative scores also mark growth inhibition (complete suppression), active = hit call of the paper
experimental-setup: stock concentration (mM, diluted 1:100): 10
Give one outcome, nothing more. List: t = active, f = inactive

>  <molecule>
CS(=O)(=O)Nc1ccc(Cc2noc(-c3ccc4[nH]cc(CCN)c4c3)n2)cc1

>  <experimental-system>
S. cerevisiae AD1-9 (efflux-pump deficient), vegetative growth in YPD

>  <group>
f

$$$$
>  <molecule>
COc1ccc2[nH]cc(CCN)c2c1

>  <experimental-system>
S. cerevisiae AD1-9 (efflux-pump deficient), vegetative growth in YPD

>  <group>
f

$$$$
>  <molecule>
c1cncc([C@@H]2CCCN2)c1

>  <experimental-system>
S. cerevisiae AD1-9 (efflux-pump deficient), vegetative growth in YPD

>  <group>
f

$$$$
>  <molecule>
COC(=O)N1CCN(C(=O)Cc2ccc(Cl)c(Cl)c2)C(CN2CCCC2)C1 (centres undefined)

>  <experimental-system>
S. cerevisiae AD1-9 (efflux-pump deficient), vegetative growth in YPD

>  <group>
f

$$$$
>  <molecule>
Cc1nnc2n1-c1ccc(Cl)cc1C(c1ccccc1)=NC2

>  <experimental-system>
S. cerevisiae AD1-9 (efflux-pump deficient), vegetative growth in YPD

>  <group>
t

$$$$

Hi, do you know how C[C@]12CC[C@H](O)CC1=CC[C@@H]1[C@@H]2CC[C@]2(C)C(=O)CC[C@@H]12 [Dehydroepiandrosterone] came out in this test? t

I would be grateful if you could indicate the recorded call for C[N+]1(C)CCN(c2ccccc2)CC1 [Dimethylphenylpiperazinium Iodide] . f

Given `NCCc1ccccn1` , state the outcome it received in this test. f

###

// reported growth sensitivity score for each item listed
Tested on: S. cerevisiae BY4741 (wild-type), vegetative growth in YPD
measurement-protocol: growth sensitivity score (doubling time z-score vs DMSO controls); higher = slower growth, strongly negative scores also mark growth inhibition (complete suppression), active = hit call of the paper
experimental-setup: stock concentration (mM, diluted 1:100): 10

Some molecules with known growth sensitivity score results, for comparison:
>  <molecule>
COC(=O)N1CCN(C(=O)Cc2ccc(Cl)c(Cl)c2)C(CN2CCCC2)C1 (centres undefined)

>  <growth sensitivity score>
-1.35 (inactive)

$$$$
>  <molecule>
COc1cc2c(cc1OC)[C@@]13CCN4CC5=CCO[C@H]6CC(=O)N2[C@H]1[C@H]6[C@H]5C[C@H]43 [Brucine]

>  <growth sensitivity score>
0.41 (inactive)

$$$$
>  <molecule>
C[C@]12CC[C@H](O)CC1=CC[C@@H]1[C@@H]2CC[C@]2(C)C(=O)CC[C@@H]12 [Dehydroepiandrosterone]

>  <growth sensitivity score>
7.64 (active)

$$$$

Below: the item to evaluate.
Short answer for c1ccc(Cn2ccnc2)cc1 [1-Benzylimidazole] : growth sensitivity score was -1.22 (inactive)

###

Test system: S. cerevisiae NKY1551 his4x/his4B, sporulating;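 further: active if sensitivity score above 5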
measurement-protocol: HIS4 meiotic recombination assay sensitivity score (z-score vs DMSO controls); higher = stronger inhibition of sporulation/recombination, active = hit call of the paper
experimental-setup: stock concentration (mM, diluted 1:100): 10
# HIS4 meiotic recombination assay sensitivity score binned as bin A = under -0.8, bin B = from -0.8 up to 0.3, bin C = 0.3 and over

Worked cases, answers included:
>  <compound>
C[N+]1(C)CCN(c2ccccc2)CC1 [Dimethylphenylpiperazinium Iodide]

>  <experimental-system>
S. cerevisiae NKY1551 his4x/his4B, sporulating;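 further: active if sensitivity score above 5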

>  <group>
bin B

$$$$
>  <compound>
CNC1CC(c2ccc(Cl)c(Cl)c2)c2ccccc21 (configuration not stated) [Indatraline]

>  <experimental-system>
S. cerevisiae NKY1551 his4x/his4B, sporulating;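 further: active if sensitivity score above 5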

>  <group>
bin A

$$$$
>  <compound>
O=C1CN=C(c2ccccc2)c2cc([N+](=O)[O-])ccc2N1 [Nitrazepam]

>  <experimental-system>
S. cerevisiae NKY1551 his4x/his4B, sporulating;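 further: active if sensitivity score above 5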

>  <group>
bin B

$$$$
>  <compound>
C=C1C[C@@H]2[C@H](CC[C@]3(C)C(=O)CC[C@@H]23)[C@@]2(C)C=CC(=O)C=C12 [Exemestane]

>  <experimental-system>
S. cerevisiae NKY1551 his4x/his4B, sporulating;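 further: active if sensitivity score above 5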

>  <group>
bin C

$$$$
>  <compound>
C[C@H]1CCC[C@H](O)CCCCCc2cc(O)cc(O)c2C(=O)O1 [Zeranol]

>  <experimental-system>
S. cerevisiae NKY1551 his4x/his4B, sporulating;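 further: active if sensitivity score above 5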

>  <group>
bin A

$$$$

Which band does `CS(=O)(=O)Nc1ccc(Cc2noc(-c3ccc4[nH]cc(CCN)c4c3)n2)cc1` fall in? bin B

Band assignment needed for CC[C@@H]1C=CC=CC[C@H](C)[C@@H](O)[C@@H](C)C(=O)[C@H](C)[C@@H](O)[C@H](C)C(=O)[C@H](C)[C@@H](O)[C@H](C)C=CC(=O)O[C@H]2[C@@H](C)[C@@H](CC1)O[C@@]1(CC[C@@H](C)[C@@H](C[C@H](C)O)O1)[C@@H]2C [Oligomycin c] please. bin B

In plain terms, what class is CN1C(=O)CN=C(c2ccccc2)c2cc(Cl)ccc21 [Diazepam] ? bin C

State the band of c1ccc2c(c1)Nc1ccccc1S2 [Phenothiazine] bin C

Lab note: which band did C[C@]12CC[C@H]3[C@@H](CCC4=CC(=O)CC[C@@]43C)[C@@H]1CC[C@@H]2O [Testosterone] land in? bin A

State the band of CN1C(=O)CN=C(c2ccccc2)c2cc([N+](=O)[O-])ccc21 [Nimetazepam] bin B

Exam item: assign CC(C)[C@]12O[C@H]1[C@@H]1O[C@]13[C@]1(O[C@H]1C[C@H]1C4=C(CC[C@@]13C)C(=O)OC4)[C@@H]2O [Triptolide] to the correct category. bin B

###

Tested on: S. cerevisiae SK1 pCDA2-eGFP (USY613), sporulating;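 further: active if sensitivity score above 5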
measurement-protocol: CDA2-GFP sporulation assay sensitivity score (z-score vs DMSO controls); higher = stronger inhibition of sporulation, active = hit call of the paper
experimental-setup: stock concentration (mM, diluted 1:100): 10
Where a name gives a salt, the structure may show the parent alone.
Tag: fulfilled if measured CDA2-GFP sporulation assay sensitivity score is not below -0.7, not fulfilled if it is.

Look over these answered cases.
>  <compound>
CCN(CC)CCOC(=O)C(O)(c1ccccc1)c1ccccc1 [Benactyzine hydrochloride]

>  <group>
fulfilled

$$$$
>  <compound>
COc1cc(N)c(Cl)cc1C(=O)NC1CN2CCC1CC2 (centres undefined) [Zacopride]

>  <group>
fulfilled

$$$$
>  <compound>
CC(O)(CS(=O)(=O)c1ccc(F)cc1)C(=O)Nc1ccc(C#N)c(C(F)(F)F)c1 (centres undefined) [Bicalutamide]

>  <group>
fulfilled

$$$$

Given the entry NC(=O)C[S+]([O-])C(c1ccccc1)c1ccccc1 (centres undefined) , answer whether its CDA2-GFP sporulation assay sensitivity score meets or surpasses -0.7. fulfilled

Check the entry `CS(=O)(=O)Nc1ccc(Cc2noc(-c3ccc4[nH]cc(CCN)c4c3)n2)cc1` : does CDA2-GFP sporulation assay sensitivity score equal or exceed -0.7? fulfilled

###

System: S. cerevisiae SK1 pCDA2-eGFP (USY613), sporulating;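 further: active if sensitivity score above 5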
measurement-protocol: CDA2-GFP sporulation assay sensitivity score (z-score vs DMSO controls); higher = stronger inhibition of sporulation, active = hit call of the paper
experimental-setup: stock concentration (mM, diluted 1:100): 10
Structures can show the parent of a compound that is named as a salt.
Hi all, reminder that labels come from CDA2-GFP sporulation assay sensitivity score, split as low (below -0.5), mid (-0.5 to below 4), high (4 or more)

Place this compound in its band: `COc1cc2c(cc1OC)[C@@]13CCN4CC5=CCO[C@H]6CC(=O)N2[C@H]1[C@H]6[C@H]5C[C@H]43` low

Which bin should I file `O=C(O)C(Cl)Cl` under? mid

Pick a category. Item: OC1CCCCC1N1CCC(c2ccccc2)CC1 (centres undefined) [Vesamicol hydrochloride] mid

Pick a category. Item: `C[C@]12CC[C@H]3[C@@H](CCC4=CC(=O)CC[C@@]43C)[C@@H]1CC[C@@H]2O` high

Bin? `N=C(NCc1ccc(Cl)cc1)SCCCc1c[nH]cn1` mid

Category of CC(C)[C@]12O[C@H]1[C@@H]1O[C@]13[C@]1(O[C@H]1C[C@H]1C4=C(CC[C@@]13C)C(=O)OC4)[C@@H]2O [Triptolide] , please. low

Band assignment needed for CC(C)CC(N(C)C)C1(c2ccc(Cl)cc2)CCC1 (centres undefined) [Sibutramine hydrochloride] please. high

Which CDA2-GFP sporulation assay sensitivity score band matches `Oc1ccc2c3c1O[C@H]1[C@@H](O)CC[C@@]4(O)[C@@H](C2)N(CC2CCC2)CC[C@]314` ? mid

###

Tested on: S. cerevisiae SK1 pCDA2-eGFP (USY613), sporulating;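 further: active if sensitivity score above 5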
measurement-protocol: CDA2-GFP sporulation assay sensitivity score (z-score vs DMSO controls); higher = stronger inhibition of sporulation, active = hit call of the paper
experimental-setup: stock concentration (mM, diluted 1:100): 10
# Lookup of reported CDA2-GFP sporulation assay sensitivity score keyed by entry

Worked examples, 3 compounds total:
>  <compound>
O=C1CN=C(c2ccccc2)c2cc([N+](=O)[O-])ccc2N1 [Nitrazepam]

>  <result-value>
-0.69 (inactive)

$$$$
>  <compound>
Cc1nnc2n1-c1ccc(Cl)cc1C(c1ccccc1)=NC2 [Alprazolam]

>  <result-value>
0.37 (inactive)

$$$$
>  <compound>
NCCc1ccccn1 [2-(2-aminoethyl)pyridine]

>  <result-value>
-1.07 (inactive)

$$$$

Continue with the next compound.
Sample C[C@H]1CCC[C@H](O)CCCCCc2cc(O)cc(O)c2C(=O)O1 [Zeranol] ; CDA2-GFP sporulation assay sensitivity score observed: -2.75 (inactive)
